Data provenance is ChEMBL document CHEMBL4706559.

- study target: Human immunodeficiency virus type 1 reverse transcriptase (Human immunodeficiency virus 1, UniProt Q72547, K103N)
- experiment: Inhibition of RNA-dependent DNA polymerase activity of recombinant HIV-1 p66/p51 reverse transcriptase K103N mutant assessed as inhibition of [3H]dTTP incorporation using poly(rA)/oligo(dT) as templates incubated for 15 mins by MicroBeta scintillation counting method

- compound: "Cc1cc(C)cc(S(=O)(=O)c2c(C(=O)NCc3ccccc3O)[nH]c3ccc(Cl)cc23)c1"
  value units: "nM"
  IC50: 73
- compound: "Cc1cc(C)cc(S(=O)(=O)c2c(C(=O)Nc3ccc(O)cc3)[nH]c3ccc(Cl)cc23)c1"
  value units: "nM"
  IC50: 106
- compound: "Cc1cc(C)cc(S(=O)(=O)c2c(C(=O)NCc3ccc(O)cc3)[nH]c3ccc(Cl)cc23)c1"
  value units: "nM"
  IC50: 45
- compound: "Cc1cc(C)cc(S(=O)(=O)c2c(C(=O)NC(C)C(=O)NCc3cccc(O)c3)[nH]c3ccc(Cl)cc23)c1 (configuration not stated)"
  value units: "nM"
  IC50: 12
- compound: "Cc1cc(C)cc(S(=O)(=O)c2c(C(=O)NCc3cccc(O)c3)[nH]c3ccc(Cl)cc23)c1"
  value units: "nM"
  IC50: 2
- compound: "Cc1cc(C)cc(S(=O)(=O)c2c(C(=O)NCc3ccc(CO)cc3)[nH]c3ccc(Cl)cc23)c1"
  value units: "nM"
  IC50: 79
- compound: "Cc1cc(C)cc(S(=O)(=O)c2c(C(=O)NCc3ccccc3N)[nH]c3ccc(Cl)cc23)c1"
  value units: "nM"
  IC50: 7
